Origin of measurements: patent US20260183434A1

# Test system: CT26.CL25 (LacZ+)
# ASSAY_METHOD_TEXT: In vitro tracer uptake (gamma counter) in β-galactosidase (LacZ) overexpressing cells
# Assay type: cell-based
# SETUP_CONDITIONS: β-galactosidase (LacZ) overexpression model; 1×10^6 cells, 0.74 MBq tracer, 40 min, 37° C.
# key: entry, value: Uptake in % ID per million cells, CT26.CL25 (LacZ+)
The answer is to be given in % ID per million cells; state only the numeric part.

Consider the worked cases shown below.
COMPOUND	TESTED_SYSTEM	READOUT_NUMBER
OC[C@H]1O[C@@H](Oc2ccc(N3CCN(CCC[18F])CC3)cc2)[C@H](O)[C@@H](O)[C@H]1O [[^18F]PIPGal]	CT26.CL25 (LacZ+)	0.06898
O=[N+]([O-])c1ccc(OCc2cc(NCCC[18F])ccc2O[C@@H]2O[C@H](CO)[C@H](O)[C@H](O)[C@H]2O)cc1 [[^18F]NO2BGal]	CT26.CL25 (LacZ+)	0.9792
OC[C@H]1O[C@@H](Oc2ccc(NCCC[18F])cc2COc2c(F)c(F)cc(F)c2F)[C@H](O)[C@@H](O)[C@H]1O [[^18F]ADTFPBGal]	CT26.CL25 (LacZ+)	4.515

Query compound follows.
In plain terms, OC[C@H]1O[C@@H](Oc2cc([18F])ccc2COc2c(F)c(F)cc(F)c2F)[C@H](O)[C@@H](O)[C@H]1O [[^18F]TFPBGal] has a documented Uptake in % ID per million cells, CT26.CL25 (LacZ+) of 7.514

----------
Parameter: Uptake in % ID per million cells, CT26. Scope: all listed entries.
# Tested on: CT26
# ASSAY_METHOD_TEXT: In vitro tracer uptake (gamma counter) in wild type CT26 control cells
# Assay type: cell-based
# SETUP_CONDITIONS: 1×10^6 cells, 0.74 MBq tracer, 40 min, 37° C.
Express the result in % ID per million cells but write the number alone.

MOLECULE	Uptake in % ID per million cells, CT26 / % ID per million cells
O=[N+]([O-])c1ccc(OCc2cc(NCCC[18F])ccc2O[C@@H]2O[C@H](CO)[C@H](O)[C@H](O)[C@H]2O)cc1 [[^18F]NO2BGal]	1.492
OC[C@H]1O[C@@H](Oc2ccc(N3CCN(CCC[18F])CC3)cc2)[C@H](O)[C@@H](O)[C@H]1O [[^18F]PIPGal]	0.3131
OC[C@H]1O[C@@H](Oc2ccc(NCCC[18F])cc2COc2c(F)c(F)cc(F)c2F)[C@H](O)[C@@H](O)[C@H]1O [[^18F]ADTFPBGal]	1.403

// OC[C@H]1O[C@@H](Oc2cc([18F])ccc2COc2c(F)c(F)cc(F)c2F)[C@H](O)[C@@H](O)[C@H]1O [[^18F]TFPBGal] : Uptake in % ID per million cells, CT26 value = 2.444
